Cited source for all entries: patent US8461328B2

Below is a list of entries, each paired with its recorded Ki value.
target: JAK2 (Homo sapiens, UniProt O60674); construct: made in house; host or cells: SF9 insect cells (baculovirus); experiment: JAK2 inhibition (Table 4); assay type: biochemical; conditions: read-out: JAK2 Ki
Sequence (O60674 812-1132): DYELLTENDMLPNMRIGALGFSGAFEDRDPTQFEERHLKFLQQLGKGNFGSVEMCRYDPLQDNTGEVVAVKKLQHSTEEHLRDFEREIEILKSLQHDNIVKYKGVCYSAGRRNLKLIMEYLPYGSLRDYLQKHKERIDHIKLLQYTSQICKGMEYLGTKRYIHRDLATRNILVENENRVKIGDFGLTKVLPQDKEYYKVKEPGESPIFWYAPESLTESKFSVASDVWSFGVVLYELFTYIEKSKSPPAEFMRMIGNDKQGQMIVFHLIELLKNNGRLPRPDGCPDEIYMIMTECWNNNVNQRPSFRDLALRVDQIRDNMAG
MEASUREMENT KIND: Ki

COMPOUND: CC(O)c1nc2cnc3[nH]ccc3c2n1C1CCN(Cc2ccnc(C#N)c2)CC1 (racemic)
MEASUREMENT KIND: Ki
OBSERVED VALUE: 0.0504 µM
--
COMPOUND: CC(C)(C)[S+]([O-])NCc1nc2cnc3[nH]ccc3c2n1C1CCCCC1 (stereo not shown)
MEASUREMENT KIND: Ki
OBSERVED VALUE: 0.199 µM
--
COMPOUND: Cc1nc2cnc3[nH]ccc3c2n1C1CCN(C2COC2)CC1
MEASUREMENT KIND: Ki
OBSERVED VALUE: 0.0112 µM
--
COMPOUND: N#Cc1cccc(CN2CCC(n3c(CC(=O)N4CCC(F)(F)CC4)nc4cnc5[nH]ccc5c43)CC2)n1
MEASUREMENT KIND: Ki
OBSERVED VALUE: 0.295 µM
--
COMPOUND: CC1(C(=O)N2CCC(n3cnc4cnc5[nH]ccc5c43)CC2)CCCN1 (racemic)
MEASUREMENT KIND: Ki
OBSERVED VALUE: 0.269 µM
--
COMPOUND: O=C([C@H]1CC[C@H](n2nnc3cnc4[nH]ccc4c32)CC1)N1CCOCC1
MEASUREMENT KIND: Ki
OBSERVED VALUE: 0.183 µM
--
COMPOUND: COCCN(C)C(=O)NC1CCC(n2c(C)nc3cnc4[nH]ccc4c32)C1 (racemic)
MEASUREMENT KIND: Ki
OBSERVED VALUE: 0.0491 µM
--
COMPOUND: N#C[C@H]1CC[C@H](n2c(CO)nc3cnc4[nH]ccc4c32)CC1
MEASUREMENT KIND: Ki
OBSERVED VALUE: 0.0209 µM
--
COMPOUND: c1cc2c(ncc3ncn(C4CCN(Cc5cncs5)CC4)c32)[nH]1
MEASUREMENT KIND: Ki
OBSERVED VALUE: 0.00169 µM
--
COMPOUND: N#Cc1cccc(S(=O)(=O)N2CC[C@@H](n3cnc4cnc5[nH]ccc5c43)C2)c1
MEASUREMENT KIND: Ki
OBSERVED VALUE: 0.00622 µM
--
COMPOUND: O=C(N[C@H]1CC[C@H](n2cnc3cnc4[nH]ccc4c32)CC1)c1ccccc1
MEASUREMENT KIND: Ki
OBSERVED VALUE: 0.00607 µM
--
COMPOUND: CS(=O)(=O)[C@H]1CC[C@H](n2c(CO)nc3cnc4[nH]ccc4c32)CC1
MEASUREMENT KIND: Ki
OBSERVED VALUE: 0.0425 µM
--
COMPOUND: CC(O)c1nc2cnc3[nH]ccc3c2n1C1CCN(Cc2cccnc2)CC1 (racemic)
MEASUREMENT KIND: Ki
OBSERVED VALUE: 0.0265 µM
--
COMPOUND: N#Cc1cccc(S(=O)(=O)N2CCC(n3cnc4cnc5[nH]ccc5c43)CC2)c1
MEASUREMENT KIND: Ki
OBSERVED VALUE: 0.00095 µM
--
COMPOUND: CC(C)(C)OC(=O)N1CCC(n2c(NCCO)nc3cnc4[nH]ccc4c32)CC1
MEASUREMENT KIND: Ki
OBSERVED VALUE: 0.763 µM
--
COMPOUND: N#CCCN1CCC(n2c(COCC3CCOC3)nc3cnc4[nH]ccc4c32)CC1 (stereo not shown)
MEASUREMENT KIND: Ki
OBSERVED VALUE: 0.089 µM
--
COMPOUND: N#CCCn1ncc2c1CC[C@H](n1cnc3cnc4[nH]ccc4c31)C2
MEASUREMENT KIND: Ki
OBSERVED VALUE: 0.0063 µM
--
COMPOUND: COCCC(=O)N[C@H]1CC[C@H](n2cnc3cnc4[nH]ccc4c32)CC1
MEASUREMENT KIND: Ki
OBSERVED VALUE: 0.0107 µM
--
COMPOUND: O=C(NCc1nc2cnc3[nH]ccc3c2n1C1CCCCC1)C1CCC1
MEASUREMENT KIND: Ki
OBSERVED VALUE: 0.0957 µM
--
COMPOUND: CC(C)n1cc(CN2CCC(n3c([C@@H](C)O)nc4cnc5[nH]ccc5c43)CC2)cn1
MEASUREMENT KIND: Ki
OBSERVED VALUE: 1.21 µM
--
COMPOUND: COc1ccc(CN2CCC[C@@H](n3cnc4cnc5[nH]ccc5c43)C2)cc1
MEASUREMENT KIND: Ki
OBSERVED VALUE: 0.16 µM
--
COMPOUND: CCCC1(n2c(C)nc3cnc4[nH]ccc4c32)CC1
MEASUREMENT KIND: Ki
OBSERVED VALUE: 0.0141 µM
--
COMPOUND: COC(=O)N[C@H]1CC[C@H](n2c(CO)nc3cnc4[nH]ccc4c32)CC1
MEASUREMENT KIND: Ki
OBSERVED VALUE: 0.0232 µM
--
COMPOUND: C[C@@H](O)c1nc2cnc3[nH]ccc3c2n1[C@H]1CC[C@@H](N2CCC(F)(F)CC2)CC1
MEASUREMENT KIND: Ki
OBSERVED VALUE: 0.455 µM
--
COMPOUND: CC1(n2cnc3cnc4[nH]ccc4c32)CCN(S(=O)(=O)c2cccnc2)CC1
MEASUREMENT KIND: Ki
OBSERVED VALUE: 0.0761 µM
--
COMPOUND: COCCNc1nc2cnc3[nH]ccc3c2n1C1CCNCC1
MEASUREMENT KIND: Ki
OBSERVED VALUE: 1.28 µM
--
COMPOUND: Cc1nc2cnc3[nH]ccc3c2n1C1CCN(C(C)C)CC1
MEASUREMENT KIND: Ki
OBSERVED VALUE: 0.184 µM
--
COMPOUND: C[C@@H](O)c1nc2cnc3[nH]ccc3c2n1[C@H]1CCCOC1
MEASUREMENT KIND: Ki
OBSERVED VALUE: 0.0675 µM
--
COMPOUND: O=C1CCC2(CCC(n3cnc4cnc5[nH]ccc5c43)CC2)N1 (stereo not shown)
MEASUREMENT KIND: Ki
OBSERVED VALUE: 0.00473 µM
--
COMPOUND: O=C(Cc1nc2cnc3[nH]ccc3c2n1C1CCCOC1)N1CCC(O)CC1 (racemic)
MEASUREMENT KIND: Ki
OBSERVED VALUE: 0.314 µM
--
COMPOUND: CC(C)C(=O)N1CC(c2nc3cnc4[nH]ccc4c3n2C2CCN(CCC#N)CC2)C1
MEASUREMENT KIND: Ki
OBSERVED VALUE: 0.0343 µM
--
COMPOUND: CC1CN(CCC#N)CCC1n1cnc2cnc3[nH]ccc3c21 (racemic) [Example 324]
MEASUREMENT KIND: Ki
OBSERVED VALUE: 0.0006 µM
--
COMPOUND: N#CCCN1CCC(n2c(CCC3CC3)nc3cnc4[nH]ccc4c32)CC1
MEASUREMENT KIND: Ki
OBSERVED VALUE: 0.0435 µM
--
COMPOUND: Cc1noc(CN2CCC(n3c(C(C)O)nc4cnc5[nH]ccc5c43)C(F)C2)n1 (stereo not shown)
MEASUREMENT KIND: Ki
OBSERVED VALUE: 0.0428 µM

###

target: JAK3 (Homo sapiens, UniProt P52333); construct: made in house; host or cells: SF9 insect cells (baculovirus); assay: JAK3 inhibition (Table 4); type: biochemical; conditions: read-out: JAK3 Ki
Sequence (P52333 783-1124): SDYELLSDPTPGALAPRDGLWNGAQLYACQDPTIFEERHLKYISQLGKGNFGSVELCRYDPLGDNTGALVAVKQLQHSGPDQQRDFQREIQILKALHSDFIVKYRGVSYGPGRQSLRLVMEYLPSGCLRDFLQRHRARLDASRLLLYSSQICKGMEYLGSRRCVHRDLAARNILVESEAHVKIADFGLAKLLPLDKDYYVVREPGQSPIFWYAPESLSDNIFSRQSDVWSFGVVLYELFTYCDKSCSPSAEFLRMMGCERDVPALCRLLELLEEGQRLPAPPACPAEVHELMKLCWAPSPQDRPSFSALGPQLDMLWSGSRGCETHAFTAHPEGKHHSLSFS
pKi: −log10 of the molar value.
Reported pKi is given for each of the following compounds.

COMPOUND: O=C(Cc1nc2cnc3[nH]ccc3c2n1C1CCCOC1)N1CCC(CO)CC1 (racemic)
pKi: 6.76
--
COMPOUND: CC(=O)NCCc1nc2cnc3[nH]ccc3c2n1[C@@H]1CCCOC1
pKi: 6.14
--
COMPOUND: Cc1nc2cnc3[nH]ccc3c2n1C1CCN(CC(F)(F)F)CC1
pKi: 8.08
--
COMPOUND: OCCc1nc2cnc3[nH]ccc3c2n1[C@H]1CCCOC1
pKi: 6.97
--
COMPOUND: COc1nc2cnc3[nH]ccc3c2n1C1CCN(CCC#N)CC1
pKi: 7.80
--
COMPOUND: Cc1cnn(CCc2nc3cnc4[nH]ccc4c3n2C2CCN(CCC#N)CC2)c1
pKi: 6.65
--
COMPOUND: N#C[C@@H]1C[C@@H]1C(=O)N1CCC[C@@H](n2cnc3cnc4[nH]ccc4c32)C1
pKi: 7.61
--
COMPOUND: N#CCCN1CC[C@@H](n2cnc3cnc4[nH]ccc4c32)C1
pKi: 7.24
--
COMPOUND: CC1(n2cnc3cnc4[nH]ccc4c32)CCNCC1
pKi: 6.01
